B1: tRNA (parent)
chain: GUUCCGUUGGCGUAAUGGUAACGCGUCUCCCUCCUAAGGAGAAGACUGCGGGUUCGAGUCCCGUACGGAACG

variants of: B1; test: yeast fitness relative to wild type (ratio to wild type); higher = fitter; tRNA-Arg(CCU), competitive growth, 37 C, YPD
Variants at the floor of the assay were thinned out.
A collection of variants and their measured yeast fitness
Answer with a number only.

INSERT INTO assay_data (variant_annotation, assay_result) VALUES
  ('C4G C24U C33G A65U C66U A69C', 0.584),
  ('A45C G68C', 0.839);

// yeast fitness lookup, variant = C5G G48A , result: 0.978
